Entry source: patent US10144737B2

Tested on: TMD-8 cells
Method Description: Cell proliferation assay (CellTiter-Glo), TMD-8 cells
Format: cell-based
Experimental Context: Homo sapiens, TMD8, 120 h, 5-day treatment, read-out: TMD8 cell growth (GI50 μM)
In this section, each of the compounds is paired with its reported GI50.
State the answer as a number, implicitly in µM.

Worked examples, 5 compounds total:
{"Compound": "CN(C)C/C=C/C(=O)N1CC[C@@H](Nc2ncnc3[nH]c(C#CCOc4ccccc4)nc23)C1", "GI50, µM": 0.004}
{"Compound": "C=CC(=O)N1CCC(Nc2ncnc3[nH]c(C#CCOc4ccc(Cl)cc4)nc23)C1 (stereo not shown)", "GI50, µM": 0.148}
{"Compound": "C=CC(=O)N1CC[C@@H](Nc2ncnc3[nH]c(C#Cc4ccc(OC(F)(F)F)cc4)cc23)C1", "GI50, µM": 0.0012}
{"Compound": "C=CC(=O)N1CC[C@@H](Nc2ncnc3[nH]c(C#Cc4ccccc4Cl)cc23)C1", "GI50, µM": 0.195}
{"Compound": "O=C([C@H]1C[C@H]1F)N1CC[C@@H](Nc2ncnc3[nH]c(C#CCOc4ccccc4F)cc23)C1", "GI50, µM": 3.58}

GI50 recorded for this compound, C=CC(=O)N1CC[C@@H](Nc2ncnc3[nH]c(C#Cc4ccccc4)cc23)C1 , is 0.009

GI50 recorded for this compound, CNC/C=C/C(=O)N1CCN(c2ncnc3[nH]c(C#CCOc4ccccc4)cc23)CC1 , is 2.9

GI50 recorded for this compound, C=CC(=O)N1CCC(Nc2ncnc3[nH]c(C#CCOc4ccc(F)cc4)nc23)C1 (stereo not shown) , is 0.051

GI50 recorded for this compound, C=CC(=O)Nc1cccc(Nc2ncnc3[nH]c(C#Cc4ccc(Cl)cc4)cc23)c1 , is 0.048

GI50 recorded for this compound, C=CC(=O)N1CC[C@@H](Nc2ncnc3[nH]c(C#CCOc4ccccc4C#N)cc23)C1 , is 0.0045

---

Tested on: TMD-8 cells
Method Description: Cell proliferation assay (CellTiter-Glo), TMD-8 cells
Assay type: cell-based
Experimental Context: Homo sapiens, TMD8, 120 h, 5-day treatment, read-out: TMD8 cell growth (GI50 μM)
In this section, each of the compounds is paired with its reported GI50.
State the answer as a number, implicitly in µM.

GI50 recorded for this compound, C=CC(=O)N1CCC(N(C)c2ncnc3[nH]c(C#CCOc4ccccc4)cc23)C1 (centres unmarked) [Example 38] , is 0.209

GI50 recorded for this compound, CN(C)C/C=C/C(=O)N1CC[C@@H](Nc2ncnc3[nH]c(C#Cc4ccccc4)cc23)C1 [Example 54] , is 0.121

GI50 recorded for this compound, C=CC(=O)N1CCN(c2ncnc3[nH]c(C#CCOCc4ccccc4)cc23)CC1 [Example 4] , is 0.157

---

System Under Test: Btk (Homo sapiens)
Construct: purchased Promega (Madison, Wis.)
Sequence (Q06187 whole entry): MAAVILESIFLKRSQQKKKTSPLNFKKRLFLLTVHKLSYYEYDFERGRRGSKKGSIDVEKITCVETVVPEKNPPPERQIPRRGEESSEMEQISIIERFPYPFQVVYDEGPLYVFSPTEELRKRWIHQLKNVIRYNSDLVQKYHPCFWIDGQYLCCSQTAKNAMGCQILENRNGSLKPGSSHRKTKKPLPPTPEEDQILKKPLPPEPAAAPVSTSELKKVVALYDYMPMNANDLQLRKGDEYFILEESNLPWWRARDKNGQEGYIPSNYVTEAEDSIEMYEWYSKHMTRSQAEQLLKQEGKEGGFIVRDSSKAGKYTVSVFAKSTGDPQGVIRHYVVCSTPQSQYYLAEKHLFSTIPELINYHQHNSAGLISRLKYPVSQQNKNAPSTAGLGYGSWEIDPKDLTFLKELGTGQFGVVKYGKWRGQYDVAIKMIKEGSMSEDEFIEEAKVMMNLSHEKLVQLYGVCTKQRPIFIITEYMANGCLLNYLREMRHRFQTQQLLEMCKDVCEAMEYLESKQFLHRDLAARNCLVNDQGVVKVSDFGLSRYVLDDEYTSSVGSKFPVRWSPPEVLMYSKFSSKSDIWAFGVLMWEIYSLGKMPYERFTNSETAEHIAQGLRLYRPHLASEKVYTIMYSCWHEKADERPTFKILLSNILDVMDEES
Method Description: Btk kinase assay (ADP-Glo)
Format: biochemical
Experimental Context: ADP-Glo Btk kinase assay kit; ATP 1.2 μM; 60 minutes at room temperature
Measured Attribute: IC50 (nM)
State the answer as a number, implicitly in nM.

Worked examples, 4 molecules total:
{"Molecule": "CN(C)C/C=C/C(=O)N1CC[C@@H](Nc2ncnc3[nH]c(C#Cc4ccccc4F)cc23)C1", "Quantity Unit": "nM", "Reported Measurement": 6}
{"Molecule": "C=CC(=O)N1CC[C@@H](Nc2ncnc3[nH]c(C#CCn4ncc5ccccc54)cc23)C1", "Quantity Unit": "nM", "Reported Measurement": 18}
{"Molecule": "C=CC(=O)N1CC[C@@H](Nc2ncnc3[nH]c(C#CCOc4c(F)cccc4F)nc23)C1", "Quantity Unit": "nM", "Reported Measurement": 6}
{"Molecule": "C=CC(=O)N1CC[C@@H](Nc2ncnc3[nH]c(C#Cc4cccc(C(F)(F)F)c4)cc23)C1", "Quantity Unit": "nM", "Reported Measurement": 187}

Please look at the following molecule next.
IC50 recorded for this molecule, C=CC(=O)N1CC[C@@H](Nc2ncnc3[nH]c(C#Cc4ccc5occc5c4)cc23)C1 , is 0.03
